SYSTEM: recombinant human TFPI (tissue factor pathway inhibitor) (human, UniProt P10646 29-304)
RUN_DESCRIPTION: cell-based or functional assay
QUANTITY: FXa assay % of FXa alone, 2.5 nM Ab, 10 nM TFPI (%)
Numbers only, in %.

Here are 2 binders together with their reported answers.
clone 11 (antibody, V domains shown) VH: EVQLVESGGGLVKPGGSLRLSCAASGFTFSSYAMNWVRQAPGKGLEWVGTITTGGSYTYYADSVEGRFTISRDNAKNSLYLQMNSLRAEDTAVYYCARQDGNFLMDYWGQGTLVTVSS VL: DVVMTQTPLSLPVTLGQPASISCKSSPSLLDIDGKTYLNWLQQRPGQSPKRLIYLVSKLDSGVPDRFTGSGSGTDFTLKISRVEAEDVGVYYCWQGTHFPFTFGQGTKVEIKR ... 7
clone 13 (antibody, V domains shown) VH: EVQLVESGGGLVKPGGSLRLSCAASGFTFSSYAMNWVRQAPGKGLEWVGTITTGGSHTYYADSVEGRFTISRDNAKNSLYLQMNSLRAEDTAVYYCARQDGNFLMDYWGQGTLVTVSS VL: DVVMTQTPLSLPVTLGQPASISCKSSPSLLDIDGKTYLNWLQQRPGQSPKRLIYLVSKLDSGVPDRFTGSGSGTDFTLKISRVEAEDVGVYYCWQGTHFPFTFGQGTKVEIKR ... 7.8

For each of the items listed, what is its FXa assay % of FXa alone, 2.5 nM Ab, 10 nM TFPI?
1. clone 1202 (antibody, V domains shown, scFv on yeast at selection; human IgG4/kappa IgG as purified; also called No. 1202 antibody) VH: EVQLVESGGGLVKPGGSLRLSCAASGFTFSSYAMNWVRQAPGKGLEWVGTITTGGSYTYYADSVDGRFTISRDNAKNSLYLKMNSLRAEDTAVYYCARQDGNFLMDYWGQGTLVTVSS VL: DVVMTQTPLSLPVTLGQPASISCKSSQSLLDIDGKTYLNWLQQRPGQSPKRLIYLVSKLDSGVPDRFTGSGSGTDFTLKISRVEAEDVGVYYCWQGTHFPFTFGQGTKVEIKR
2. clone 1023 (antibody, V domains shown, scFv on yeast at selection; human IgG4/kappa IgG as purified) VH: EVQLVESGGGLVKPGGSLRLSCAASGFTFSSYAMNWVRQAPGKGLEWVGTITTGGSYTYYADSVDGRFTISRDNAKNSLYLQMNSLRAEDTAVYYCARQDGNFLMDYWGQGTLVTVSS VL: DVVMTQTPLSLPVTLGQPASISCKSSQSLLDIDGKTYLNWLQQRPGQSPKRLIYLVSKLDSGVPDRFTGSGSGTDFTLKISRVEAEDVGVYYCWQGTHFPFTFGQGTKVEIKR

1: 7.3; 2: 7.3
